Target: T1, recombinant human Trop-2-his protein (ACCESSION NO.: NP_002344.2, AA 1-274) (human, UniProt P09758 27-274)
T1 construct: range 27-274; also called recombinant human Trop-2 protein; recombinant human Trop-2 extracellular domain; not shown: his tag
T1 sequence (looked up): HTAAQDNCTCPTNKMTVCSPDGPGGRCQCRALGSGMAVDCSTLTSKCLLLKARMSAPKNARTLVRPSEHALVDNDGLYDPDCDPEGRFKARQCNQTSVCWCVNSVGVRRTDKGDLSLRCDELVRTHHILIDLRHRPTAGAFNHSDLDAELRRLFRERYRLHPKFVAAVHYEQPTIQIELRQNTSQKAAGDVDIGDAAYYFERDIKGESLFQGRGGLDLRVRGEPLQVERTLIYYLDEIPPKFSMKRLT
Assay: BLI, antibody on AHC sensor, Trop-2-his 60 nM
PROPERTY_LABEL: Kd (nM)
Number only, in nM; omit the unit.

Request: Assign Kd to the following record: h23-12-25 (antibody, human IgG1, kappa, V domains shown, also called h32-12) VH: QVQLVQSGAEVKKPGASVKVSCKASGYTFTSYWMHWVRQAPGQGLEWMGEITPSDNYGSYNQKFKGRVTITRDTSTSTAYMELSSLRSEDTAVYYCARGHGNYVSFDYWGQGTLVTVSS VL: DIQMTQSPSSLSASVGDRVTITCRASQDISNYLNWYQQKPGKAPKLLIYYTSRLESGVPSRFSGSGSGTDFTLTISSLQPEDFATYFCQQGYTLPPYTFGQGTKLEIKR
Result: 0.502

Request: Consider the binder h23-12-1 (antibody, human IgG1, kappa, V domains shown, also called CDR grafted antibody 23-12) VH: QVQLVQSGAEVKKPGASVKVSCKASGYTFTSYWMHWVRQAPGQGLEWMGEITPSDNYTSYNQKFKGRVTITRDTSTSTAYMELSSLRSEDTAVYYCARGHGNYVSFDYWGQGTLVTVSS VL: DIQMTQSPSSLSASVGDRVTITCRASQDISNYLNWYQQKPGKAPKLLIYYTSRLHSGVPSRFSGSGSGTDFTLTISSLQPEDFATYFCQQGYTLPPYTFGQGTKLEIKR and give its recorded Kd.
Result: 0.272

Request: Fill in Kd for record h23-12-11 (antibody, human IgG1, kappa, V domains shown) VH: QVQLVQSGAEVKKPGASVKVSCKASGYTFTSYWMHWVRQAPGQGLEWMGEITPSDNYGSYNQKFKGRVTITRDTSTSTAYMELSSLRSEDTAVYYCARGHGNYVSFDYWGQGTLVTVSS VL: DIQMTQSPSSLSASVGDRVTITCRASQDISNYLNWYQQKPGKAPKLLIYYASRLHSGVPSRFSGSGSGTDFTLTISSLQPEDFATYFCQQGYTLPPYTFGQGTKLEIKR
Result: 0.881

Request: Determine its reported Kd: h23-12-49 (antibody, human IgG1, kappa, V domains shown) VH: QVQLVQSGAEVKKPGASVKVSCKASGYTFTSYWMHWVRQAPGQGLEWMGEITPSDNYTSYNQKFKGRVTITRDTSTSTAYMELSSLRSEDTAVYYCARGQGNYVSFDYWGQGTLVTVSS VL: DIQMTQSPSSLSASVGDRVTITCRASQDISNYLNWYQQKPGKAPKLLIYYTSRLHSGVPSRFSGSGSGTDFTLTISSLQPEDFATYFCQQGYSLPPYTFGQGTKLEIKR
Result: 2.99

Request: Indicate its recorded Kd; the binder in question is h23-12-5 (antibody, human IgG1, kappa, V domains shown) VH: QVQLVQSGAEVKKPGASVKVSCKASGYTFTSYWMHWVRQAPGQGLEWMGEITPSDNYTSYAQKFKGRVTITRDTSTSTAYMELSSLRSEDTAVYYCARGHGNYVSFDYWGQGTLVTVSS VL: DIQMTQSPSSLSASVGDRVTITCRASQDISNYLNWYQQKPGKAPKLLIYYTSRLHSGVPSRFSGSGSGTDFTLTISSLQPEDFATYFCQQGYTLPPYTFGQGTKLEIKR
Result: 3.2

Request: Write down Kd measured for item h23-12-39 (antibody, human IgG1, kappa, V domains shown) VH: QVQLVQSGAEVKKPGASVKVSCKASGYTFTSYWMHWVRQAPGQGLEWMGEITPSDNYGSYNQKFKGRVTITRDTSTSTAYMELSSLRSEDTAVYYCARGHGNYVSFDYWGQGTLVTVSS VL: DIQMTQSPSSLSASVGDRVTITCRASQDISNYLNWYQQKPGKAPKLLIYYTSRLHSGVPSRFSGSGSGTDFTLTISSLQPEDFATYFCQQYYTLPPYTFGQGTKLEIKR
Result: 0.492

Request: Give the value of Kd reported for the following: h23-12-43 (antibody, human IgG1, kappa, V domains shown) VH: QVQLVQSGAEVKKPGASVKVSCKASGYTFTSYWMHWVRQAPGQGLEWMGEITPSDNYTSYNQKFKGRVTITRDTSTSTAYMELSSLRSEDTAVYYCARGHGNYVSFDYWGQGTLVTVSS VL: DIQMTQSPSSLSASVGDRVTITCRASQDISNYLNWYQQKPGKAPKLLIYYTSRLHSGVPSRFSGSGSGTDFTLTISSLQPEDFATYFCQQGYSLPPYTFGQGTKLEIKR
Result: 0.98

Request: Write down Kd measured for item h23-12-37 (antibody, human IgG1, kappa, V domains shown) VH: QVQLVQSGAEVKKPGASVKVSCKASGYTFTSYWMHWVRQAPGQGLEWMGEITPGDNYTSYNQKFKGRVTITRDTSTSTAYMELSSLRSEDTAVYYCARGHGNYVSFDYWGQGTLVTVSS VL: DIQMTQSPSSLSASVGDRVTITCRASQDISNYLNWYQQKPGKAPKLLIYYTSRLHSGVPSRFSGSGSGTDFTLTISSLQPEDFATYFCQQYYTLPPYTFGQGTKLEIKR
Result: 0.893

Request: // Input: h23-12-9 (antibody, human IgG1, kappa, V domains shown) VH: QVQLVQSGAEVKKPGASVKVSCKASGYTFTSYWMHWVRQAPGQGLEWMGEITPGDNYTSYNQKFKGRVTITRDTSTSTAYMELSSLRSEDTAVYYCARGHGNYVSFDYWGQGTLVTVSS VL: DIQMTQSPSSLSASVGDRVTITCRASQDISNYLNWYQQKPGKAPKLLIYYASRLHSGVPSRFSGSGSGTDFTLTISSLQPEDFATYFCQQGYTLPPYTFGQGTKLEIKR . Output its Kd only.
Result: 1.1

Request: For the binder h23-12-27 (antibody, human IgG1, kappa, V domains shown) VH: QVQLVQSGAEVKKPGASVKVSCKASGYTFTSYWMHWVRQAPGQGLEWMGEITPSDNYTSYNQKFKGRVTITRDTSTSTAYMELSSLRSEDTAVYYCARGEGNYVSFDYWGQGTLVTVSS VL: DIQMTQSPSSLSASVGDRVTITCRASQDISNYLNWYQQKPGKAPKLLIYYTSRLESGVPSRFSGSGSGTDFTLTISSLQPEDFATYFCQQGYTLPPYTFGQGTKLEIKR , give its measured Kd value.
Result: 0.496

Request: Retrieve Kd measured for h23-12-44 (antibody, human IgG1, kappa, V domains shown) VH: QVQLVQSGAEVKKPGASVKVSCKASGYTFTSYWMHWVRQAPGQGLEWMGEITPGDNYTSYNQKFKGRVTITRDTSTSTAYMELSSLRSEDTAVYYCARGHGNYVSFDYWGQGTLVTVSS VL: DIQMTQSPSSLSASVGDRVTITCRASQDISNYLNWYQQKPGKAPKLLIYYTSRLHSGVPSRFSGSGSGTDFTLTISSLQPEDFATYFCQQGYSLPPYTFGQGTKLEIKR and print it.
Result: 0.717
